- Target system: T1, Cyno CD33 full length, expressed on HEK293F cells (cynomolgus monkey)
- T1 construct: HEK293F cells transduced with lentivirus containing full length cyno CD33 (Genbank XP_005590138.1); also called cyCD33
- Experiment: flow cytometry, HEK293F cells expressing cyno CD33
Quantity kind: MFI at 6 nM mAb (MFI)
Provide only the numeric value, understood in MFI.

Request: What measured MFI at 6 nM mAb goes with C33B124 (antibody, IgG1, V domains shown, huIgG1 F405L; also called C33F129; C33H73/C33L32) VH: EVQLLESGGGLVQPGGSLRLSCAASRFTFSSYAMTWVRQAPGKGLEWVSTINISGGSTYYADSVKGRFTISRDNSKNTLYLQMNSLRAEDTAVYYCTKGGYSSGPFDYWGQGTLVSVSS VL: SYELTQPPSVSVSPGQTASITCSGDKLGDKYVRWYQQKTGQSPVLVMYQDSKRPSGIRERFYGSNSGNTATPTISGTQAVDEAEYYCQAWDSSTGVVFGGGTKLTVL ?
Result: 132

Request: // query: C33B48 (antibody, IgG1, V domains shown, huIgG1 F405L; also called C33F53; C33H80/C33L73) VH: QVQLVQSGSELRKPGASVKVSCKASGYTFTNYAMNWVRQAPGQGLEWMGWINTNTGNPTYAQGFTGRFVFSLDTSVSSAYLQISSLKAEDTAMYYCATDRDRGTDYWGQGTLVTVSS VL: QSALTQPASVSGSPGQSITISCTGTSSDVGDYNYVSWYQQHPGKVPKLMIYDVSNRPSGVSNRFSGSMSGNTASLTISGLQAEDEADYYCSSYSSSSALEVFGGGTKLTVL
Result: 47300

Request: Then what about the binder C33B122 (antibody, IgG1, V domains shown, huIgG1 F405L; also called C33F127; C33H92/C33L30) VH: QLQLQESGPGLVKPSETLSLTCTVSGGSIRSSSYYWGWIRQPPGKGPEWIGSIYSSGNTYYNPSLKSRVTISVDTSKNQFSLKLISMTAADTAVFYCARLAATIVVPAARYFDCWGQGTLVTVSS VL: SYELTQPPSVSVSPGQTVSISCSGDRLGDKYACWYQQKPGQSPVLVIYQDSKRPSGIPERFSGSNSGNTATLTISGTQAMDEADYYCQAWDSSSYVFGTGTKVTVL ?
Result: 13900
